- Test system: Moraxella catarrhalis
- Method description: MIC by NCCLS reference broth microdilution, 450 respiratory tract pathogens
- Format: cell-based
- Condition context: β-lactamase negative (n = 13)
Property measured: MIC90 (µg/mL)
Your answer should be a plain number; it is taken to be in µg/mL.

Solved entries (count: 5):
{"columns": ["Compound", "MIC90 / µg/mL"],
 "data": [
  ["N[C@@H]1[C@H]2CN(c3nc4c(cc3F)c(=O)c(C(=O)O)cn4-c3ccc(F)cc3F)C[C@@H]12 [Trovafloxacin, trovafloxacin]", 0.036],
  ["C[C@@H]1CN(c2c(F)c(N)c3c(=O)c(C(=O)O)cn(C4CC4)c3c2F)C[C@H](C)N1 [Sparfloxacin, sparfloxacin]", 0.06],
  ["CO/N=C(\\C(=O)N[C@@H]1C(=O)N2C(C(=O)O)=C(COC(N)=O)CS[C@H]12)c1ccco1 [Cefuroxime, cefuroxime]", 0.5],
  ["C[C@H]1COc2c(N3CCN(C)CC3)c(F)cc3c(=O)c(C(=O)O)cn1c23 [Levofloxacin, levofloxacin]", 0.03],
  ["CO/N=C1\\CN(c2nc3c(cc2F)c(=O)c(C(=O)O)cn3C2CC2)CC1CN (racemic) [Gemifloxacin]", 0.015]
]}

Endpoint output: MIC90 of COc1c(N2C[C@@H]3CCCN[C@@H]3C2)c(F)cc2c(=O)c(C(=O)O)cn(C3CC3)c12 [Moxifloxacin, moxifloxacin] . Value?
0.06

Look up MIC90 for this compound: NC1CCN(c2c(F)cc3c(=O)c(C(=O)O)cn(C4CC4)c3c2Cl)C1 (stereo not shown) [Clinafloxacin, clinafloxacin]
0.015

* * *

- System: Enterococcus gallinarum
- Method description: MIC by NCCLS broth microdilution, 1100 Japanese clinical isolates 1997-1998
- Type: cell-based
- Condition context: Enterococcus gallinarum, GALLINARUM, Enterococcus gallinarum (vanC1), strain TMS3; read-out: MIC
Property measured: MIC
Answer format: value, then unit.

Field: example entries. Status: answers known.
{"columns": ["Molecule", "Value reported"],
 "data": [
  ["NC1CCN(c2nc3c(cc2F)c(=O)c(C(=O)O)cn3-c2ccc(F)cc2F)C1 (stereo not shown) [Tosufloxacin, tosufloxacin]", "0.5 µg/mL"],
  ["C[C@@H]1CN(c2c(F)c(N)c3c(=O)c(C(=O)O)cn(C4CC4)c3c2F)C[C@H](C)N1 [Sparfloxacin, sparfloxacin]", "0.5 µg/mL"],
  ["C[C@H]1COc2c(N3CCN(C)CC3)c(F)cc3c(=O)c(C(=O)O)cn1c23 [Levofloxacin, levofloxacin]", "1 µg/mL"]
]}

Now look at this one.
Record request: MIC value, item N[C@@H]1[C@H]2CN(c3nc4c(cc3F)c(=O)c(C(=O)O)cn4-c3ccc(F)cc3F)C[C@@H]12 [Trovafloxacin, trovafloxacin]
0.25 µg/mL

* * *

- Test system: Streptococcus pneumoniae
- Method description: MIC by NCCLS broth microdilution, 1100 Japanese clinical isolates 1997-1998
- Format: cell-based
- Condition context: Streptococcus pneumoniae, Streptococcus pneumoniae erythromycin susceptible (n=11); read-out: MIC50
Examples of molecules with documented MIC50 follow.
Expressed in µg/mL, but write only the number.

Below, each entry is followed by its recorded MIC50 result.
{"columns": ["Molecule", "Unit symbol", "MIC50"],
 "data": [
  ["C[C@@H]1CN(c2c(F)c(N)c3c(=O)c(C(=O)O)cn(C4CC4)c3c2F)C[C@H](C)N1", "µg/mL", 0.25],
  ["CO/N=C1\\CN(c2nc3c(cc2F)c(=O)c(C(=O)O)cn3C2CC2)CC1CN (racemic)", "µg/mL", 0.032],
  ["NC1CCN(c2nc3c(cc2F)c(=O)c(C(=O)O)cn3-c2ccc(F)cc2F)C1 (stereo not shown)", "µg/mL", 0.25]
]}

Now for a further molecule.
Recorded MIC50 for "C[C@H]1COc2c(N3CCN(C)CC3)c(F)cc3c(=O)c(C(=O)O)cn1c23" with Streptococcus pneumoniae, please?
1

* * *

- Tested on: Gram positive anaerobic and facultative anaerobic pathogens
- Method description: microbe, parasite or virus in culture
- Assay type: cell-based
- Condition context: Limosilactobacillus reuteri, JCM1173
Property measured: MIC (µg/mL)
# unit: µg/mL | format: bare number

As a guide, the following entries are already answered.
{"columns": ["Compound", "MIC [µg/mL]"],
 "data": [
  ["CO/N=C1\\CN(c2nc3c(cc2F)c(=O)c(C(=O)O)cn3C2CC2)CC1CN (racemic)", 0.25],
  ["C[C@@H]1CN(c2c(F)c(N)c3c(=O)c(C(=O)O)cn(C4CC4)c3c2F)C[C@H](C)N1", 2]
]}

With those in mind, consider the next compound.
Endpoint output: MIC of "N[C@@H]1[C@H]2CN(c3nc4c(cc3F)c(=O)c(C(=O)O)cn4-c3ccc(F)cc3F)C[C@@H]12" . Value?
1

* * *

MIC90 overview
- System: Streptococcus pneumoniae
- Method description: MIC by NCCLS reference broth microdilution, 450 respiratory tract pathogens
- Format: cell-based
- Condition context: Streptococcus pneumoniae, Streptococcus pneumoniae (n = 100)
Could you give me the number in µg/mL? Just the number is fine.

{"columns": ["Molecule", "Study target", "Unit symbol", "MIC90"],
 "data": [
  ["C[C@@H]1CN(c2c(F)c(N)c3c(=O)c(C(=O)O)cn(C4CC4)c3c2F)C[C@H](C)N1", "Streptococcus pneumoniae", "µg/mL", 0.5],
  ["CO/N=C(\\C(=O)N[C@@H]1C(=O)N2C(C(=O)O)=C(COC(N)=O)CS[C@H]12)c1ccco1", "Streptococcus pneumoniae", "µg/mL", 2],
  ["NC1CCN(c2c(F)cc3c(=O)c(C(=O)O)cn(C4CC4)c3c2Cl)C1 (stereo not drawn)", "Streptococcus pneumoniae", "µg/mL", 0.12]
]}

Would you mind telling me what MIC90 value was observed for "C[C@H]1COc2c(N3CCN(C)CC3)c(F)cc3c(=O)c(C(=O)O)cn1c23" ?
1

Consider the molecule shown here: CO/N=C1\CN(c2nc3c(cc2F)c(=O)c(C(=O)O)cn3C2CC2)CC1CN (racemic) What is its recorded MIC90?
0.03

I am curious: what MIC90 value has been reported for "N[C@@H]1[C@H]2CN(c3nc4c(cc3F)c(=O)c(C(=O)O)cn4-c3ccc(F)cc3F)C[C@@H]12" ?
0.12

* * *

List of MIC values.
- System: Gram negative anaerobic pathogens and facultative anaerobic pathogens
- Method description: MIC by agar dilution, Brucella HK agar with 5% laked sheep blood, anaerobic reference strains
- Format: cell-based
- Condition context: Bacteroides ovatus, ATCC8483, Bacteroides ovatus ATCC8483; read-out: MIC
Numeric answer only, unit mg/L assumed.

// below: answered molecules
{"columns": ["Molecule", "Unit symbol", "MIC"],
 "data": [
  ["CO/N=C1\\CN(c2nc3c(cc2F)c(=O)c(C(=O)O)cn3C2CC2)CC1CN (racemic)", "mg/L", 1],
  ["C[C@@H]1CN(c2c(F)c(N)c3c(=O)c(C(=O)O)cn(C4CC4)c3c2F)C[C@H](C)N1", "mg/L", 2],
  ["N[C@@H]1[C@H]2CN(c3nc4c(cc3F)c(=O)c(C(=O)O)cn4-c3ccc(F)cc3F)C[C@@H]12", "mg/L", 0.5]
]}

Please find the next molecule below.
Looking for the measured MIC of "C[C@@H](O)[C@H]1C(=O)N2C(C(=O)O)=C(SCCN=CN)C[C@H]12" , can you help?
0.25

* * *

Reported MIC90 is given for each of the following compounds.
- Tested on: Staphylococcus epidermidis
- Method description: MIC by NCCLS broth microdilution, 1100 Japanese clinical isolates 1997-1998
- Format: cell-based
- Condition context: Staphylococcus epidermidis, Staphylococcus epidermidis oxacillin susceptible (n=35)
Provide the measurement as a number trailed by its unit.

{"columns": ["Compound", "MIC90"],
 "data": [
  ["C[C@@H]1CN(c2c(F)c(N)c3c(=O)c(C(=O)O)cn(C4CC4)c3c2F)C[C@H](C)N1", "4 µg/mL"],
  ["CO/N=C1\\CN(c2nc3c(cc2F)c(=O)c(C(=O)O)cn3C2CC2)CC1CN (racemic)", "0.5 µg/mL"],
  ["N[C@@H]1[C@H]2CN(c3nc4c(cc3F)c(=O)c(C(=O)O)cn4-c3ccc(F)cc3F)C[C@@H]12", "1 µg/mL"],
  ["C[C@H]1COc2c(N3CCN(C)CC3)c(F)cc3c(=O)c(C(=O)O)cn1c23", "4 µg/mL"]
]}

Moving on to the next compound.
// query MIC90 value for entry NC1CCN(c2nc3c(cc2F)c(=O)c(C(=O)O)cn3-c2ccc(F)cc2F)C1 (centres unmarked)
4 µg/mL
